Data origin, for the record: patent US10940139B2

Recorded inhibition at 20 µM values for a group of molecules are listed next.
Molecular target: KRas G12D/Q61H double mutant (Homo sapiens (Human), UniProt P01116, G12D/Q61H)
Sequence (P01116-2 other isoform, or with tags, fused parts or gaps G12D/Q61H): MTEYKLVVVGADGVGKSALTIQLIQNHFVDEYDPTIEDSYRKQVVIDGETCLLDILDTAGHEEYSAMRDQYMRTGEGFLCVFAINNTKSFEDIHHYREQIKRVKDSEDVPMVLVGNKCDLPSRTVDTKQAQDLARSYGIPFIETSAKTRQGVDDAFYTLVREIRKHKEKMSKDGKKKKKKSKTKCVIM
Assay: Ras GTP binding domain inhibition assay (labeled GTP)
Settings: at 20 μM; read-out: KRas G12D Q61H % Inh.

molecule	inhibition at 20 µM
Oc1nc(-c2ccccn2)nc2c(-c3ccc(OC4CCOC4)cc3)csc12 (stereo not drawn) [drawing 3734]	25 to 50%
Cn1cc(C2CN(C(=O)c3csc4c(O)nc(-c5ccccn5)nc34)CCN2)cn1 (stereo not drawn) [drawing 3666]	1 to 25%
Oc1nc(-c2ccccn2)nc2c(-c3ccccc3)csc12 [drawing 3625]	25 to 50%

====

Biological target: KRas G12D mutant protein (Homo sapiens (Human), UniProt P01116, G12D)
Sequence (P01116-2 other isoform, or with tags, fused parts or gaps G12D): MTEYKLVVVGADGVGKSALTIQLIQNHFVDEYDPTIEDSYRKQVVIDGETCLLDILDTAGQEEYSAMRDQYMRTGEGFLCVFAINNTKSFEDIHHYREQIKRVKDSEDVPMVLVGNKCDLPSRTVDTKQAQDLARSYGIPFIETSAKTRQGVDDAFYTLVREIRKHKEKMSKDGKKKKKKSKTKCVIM
Assay: Ras GTP binding domain inhibition assay (labeled GTP)
Details: 20 μM compound; KRas G12D; read-out: % Inhibition at 20 μM of K-Ras mutant and wild-type protein, KRas G12D
Protocol: The following method was developed as specific assay for KRas G12D mutant protein. Buffer-I: • 50 mM Tris, pH 7.5 • 150 mM NaCl (optional) • 1 mM MgCl2 • 1 mM DTT. • KRas G12D mutant protein was expressed as a His-tagged protein. […]
The following compounds are shown together with reported inhibition at 20 µM values.

compound	inhibition at 20 µM
Cn1cnc(-c2nc(O)c3scc(-c4cccc(C(F)(F)F)c4)c3n2)c1 [drawing 3604]	25 to 50%
COCCN(C)c1nc(-c2nccn2C)nc2sc(-c3ccccc3)c(-c3ccccc3)c12 [drawing 3566]	51 to 75%
COCCNc1nc(-c2nccn2C)nc2sc(-c3ccccc3)c(-c3ccncc3)c12 [drawing 3596]	51 to 75%
COc1cnc(-c2nccn2C)nc1O [drawing 3513]	76 to 100%
COc1nc(-c2cn(C)cn2)nc2sc(-c3ccncc3)c(-c3ccccc3)c12 [drawing 3531]	25 to 50%
Cc1nn(C(C)C)cc1-c1csc2c(O)nc(-c3ccccn3)nc12 [drawing 3506]	51 to 75%
Oc1cccc(-c2csc3c(O)nc(-c4ccccn4)nc23)n1 [drawing 3498]	25 to 50%
OCC1(c2ccc(-c3nc(-c4ccccn4)nc(O)c3Oc3ccccc3)cc2)CC1 [drawing 3534]	25 to 50%
COCCNc1nc(-c2nccn2C)nc2sc(-c3ccc(OC)cc3)c(-c3ccccc3)c12 [drawing 3597]	25 to 50%

====

Biological target: Rac-1 (Homo sapiens (Human), UniProt P63000)
Assay: Rac inhibition assay (labeled GTP)
Assay type: binding
Details: read-out: Rac-1 % Inh.
recorded-endpoint: inhibition at 20 µM

compound	test-result
Oc1nc(-c2ccccn2)nc2c(C3CCC3)csc12 [drawing 3797]	76 to 100%
COc1nccc(CCNC(=O)c2csc3nc(-c4ccccn4)nc(N4CCOCC4)c23)n1 [drawing 3769]	25 to 50%
Cc1sc2c(O)nc(-c3ccccn3)nc2c1Br [drawing 3840]	25 to 50%
COCCCCNC(=O)c1csc2nc(-c3ccccn3)nc(N(CCOC)CCOC)c12 [drawing 3682]	76 to 100%
Cn1ccnc1-c1nc(O)c2sc(-c3ccccc3)c(-c3ccccc3Cl)c2n1 [drawing 3913]	51 to 75%
COc1ccccc1-c1csc2c(O)nc(-c3ccccn3)nc12 [drawing 3742]	76 to 100%
COCCN(CCOC)c1nc(-c2ccccn2)nc2scc(C(=O)NCCc3ccc(OC)nc3)c12 [drawing 3681]	51 to 75%
Oc1nc(-c2ccccn2)nc2c(CC3CCNC3)csc12 (centres unmarked) [drawing 3844]	76 to 100%
COCC(C)Nc1nc(-c2ccccn2)nc2sc(-c3ccncc3)c(-c3ccccc3)c12 (centres unmarked) [drawing 3859]	51 to 75%
Oc1nc(-c2ccccn2)nc2c(-c3ccc(Cl)c(Cl)c3)csc12 [drawing 3781]	25 to 50%
COc1ccc(CCN(C)C(=O)c2csc3nc(-c4ccccn4)nc(N4CCOCC4)c23)cn1 [drawing 3635]	25 to 50%
